# ASSAY_TEXT: Pharmacokinetics and metabolism in rat plasma after a single intravenous or oral dose (HPLC)
# Format: in vivo
# COND: female, Wistar, in vivo, 10 mg/kg, % F (bioavailability)
MEASURED_ATTRIBUTE: bioavailability (%)
Numbers only, in %.

Supply reported bioavailability belonging to this compound: COc1cc2c(cc1OS(N)(=O)=O)CCC1C2CC[C@]2(C)C(OS(N)(=O)=O)CCC12 (stereo partly shown) [2-MeOE2bisMATE, 2-methoxyoestradiol-bis-sulphamate]
85

----------
# ASSAY_TEXT: Pharmacokinetics and metabolism in rat plasma after a single intravenous or oral dose (HPLC)
# Assay type: in vivo
# COND: female, Wistar, plasma, iv, 10 mg kg^−1, rat, 1 h after 10 mg kg^−1 intravenous bolus, LOD 11 ng ml^−1
MEASURED_ATTRIBUTE: concentration at 1 h

Specify measured concentration at 1 h for COc1cc2c(cc1O)CC[C@@H]1[C@@H]2CC[C@]2(C)[C@@H](O)CC[C@@H]12 .
< 11 ng/mL

Source of measurements: paper PMC2410173
